The measured values listed here are drawn from patent US20260083865A1.

Target: Fc-fusion protein of human PSMA (hPSMA-Fc) (Homo sapiens)
Construct: purchased Acro Biosystems PSA-H5264
Sequence (Q04609 44-750 limits assumed): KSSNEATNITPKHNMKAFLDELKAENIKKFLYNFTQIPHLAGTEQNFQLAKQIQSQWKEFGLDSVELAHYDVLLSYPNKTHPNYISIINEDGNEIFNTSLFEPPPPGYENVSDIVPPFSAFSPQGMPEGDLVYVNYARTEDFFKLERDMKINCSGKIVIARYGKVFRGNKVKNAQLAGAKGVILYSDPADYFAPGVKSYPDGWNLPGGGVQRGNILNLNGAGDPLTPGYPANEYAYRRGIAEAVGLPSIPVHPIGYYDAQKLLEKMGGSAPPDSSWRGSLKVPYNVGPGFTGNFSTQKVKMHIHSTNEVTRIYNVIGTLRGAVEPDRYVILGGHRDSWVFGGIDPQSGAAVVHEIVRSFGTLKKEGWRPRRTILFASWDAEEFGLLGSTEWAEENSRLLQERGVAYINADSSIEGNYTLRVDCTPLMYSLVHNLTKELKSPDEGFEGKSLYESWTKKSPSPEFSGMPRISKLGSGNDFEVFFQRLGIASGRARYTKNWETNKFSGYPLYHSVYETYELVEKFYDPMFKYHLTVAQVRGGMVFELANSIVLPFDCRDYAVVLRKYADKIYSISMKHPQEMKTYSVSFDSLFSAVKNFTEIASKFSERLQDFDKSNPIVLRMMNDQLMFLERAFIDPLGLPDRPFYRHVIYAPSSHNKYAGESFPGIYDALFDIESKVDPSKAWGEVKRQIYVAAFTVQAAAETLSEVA
Test: Surface plasmon resonance assay (Biacore T200, single cycle kinetic)
Assay type: binding
Conditions: pKD category for PSMA SPR activity assay, hPSMA-Fc, 25° C.; read-out: pKD CAT (converted)
Bridge positions count the residues as written; N and C are the ends. Square brackets hold non-standard residues; d marks the D form. Peptide text beside a SMILES is read from it. * marks the point of attachment. DOTA = O=C(O)CN1CCN(CC(=O)O)CCN(CC(=O)*)CCN(CC(=O)O)CC1; Tle = CC(C)(C)[C@H](N)C(=O)O; Aib = CC(C)(N)C(=O)O
measurement_label: Kd

// CC(=O)N[C@H](C(=O)NC(C)(C)C(=O)N[C@@H](Cc1ccccc1)C(=O)N[C@H]1CSSC[C@@H](C(=O)N[C@H](C(=O)N[C@H](C(=O)N[C@@H](CC(=O)O)C(N)=O)[C@@H](C)O)C(C)(C)C)NC(=O)[C@H](CC(N)=O)NC(=O)[C@H](CCCCNC(=O)CN2CCN(CC(=O)O)CCN(CC(=O)O)CCN(CC(=O)O)CC2)NC(=O)[C@H](CCCNC(=N)N)NC(=O)[C@H](CCCCN)NC1=O)[C@@H](C)O [PSM-0397] (Ac-T[Aib]FCKRK(DOTA)NC[Tle]TD-NH2; disulfide 4-9) : Kd value = 12.6 to 126 nM
